pEC50: −log10 of the molar value.
Let's go through some recorded pEC50 values for OC43 Mpro (Human coronavirus OC43 (HCoV-OC43)) together.
QUANTITY KIND: pEC50

| MOL | QUANTITY KIND | READOUT VALUE |
| --- | --- | --- |
| N#Cc1cc(C(=O)N2CCNC(=O)C2)c(N2CC[C@@H](NC(=O)c3cc(=O)[nH]c4c(F)cccc34)C2)c(C(F)(F)F)c1 | pEC50 | 8.06 |
| C[C@@H]1C[C@@H](NC(=O)c2cc(=O)[nH]c3c(F)c(F)ccc23)CN1c1c(C(=O)N2CCOCC2)cc(C#N)cc1C(F)(F)F | pEC50 | 8.75 |
| O=C(N[C@@H]1CCN(c2c(C(=O)N3CCOCC3)cc(Br)cc2C(F)(F)F)C1)c1cc(=O)[nH]c2ccccc12 | pEC50 | 9.13 |
| Cc1cc(C(=O)N2CCOCC2)c(N2C[C@H](NC(=O)c3cc(=O)[nH]c4c(F)cc(F)cc34)CC2=O)c(C2CC2)c1 | pEC50 | 8.47 |
| COCCN1CCN(C(=O)c2cc(Br)cc(C(F)(F)F)c2N2CC[C@@H](NC(=O)c3cc(=O)[nH]c4c(F)cccc34)C2)CC1 | pEC50 | 8.82 |
| N#Cc1cc(C(=O)N2CCOCC2)c(N2C[C@H](NC(=O)c3cc(=O)[nH]c4c(F)c(F)ccc34)CC2=O)c(C(F)(F)F)c1 | pEC50 | 7.04 |

====

- TEST DESCRIPTION: in vitro
- EXPERIMENTAL CONTEXT: rat, microsomes, pH 7.4
Assign labels as follows, please: rule met for CLint scaled below 300 mL/min/kg; rule not met for CLint scaled equal to or exceeding 300 mL/min/kg.

| MOL | CAT |
| --- | --- |
| O=C(N[C@@H]1CCN(c2c(OC(F)F)cc(Cl)cc2C(=O)N2CCOCC2)C1)c1cc(=O)[nH]c2c(F)cccc12 | rule not met |
| N#Cc1cc(C(=O)N2CCOCC2)c(N2CC[C@@H](NC(=O)c3c(F)c(=O)[nH]c4ccccc34)C2)c(C(F)(F)F)c1 | rule met |
| O=C(N[C@@H]1CCN(c2c(C(=O)N3CCOCC3)cc(Br)cc2C(F)(F)F)C1)c1cc(=O)[nH]c2c(F)ccc(F)c12 | rule not met |
| COc1cccc2[nH]c(=O)cc(C(=O)N[C@H]3CN(c4c(C(=O)N5CCOCC5)cc(C)cc4C4CC4)C[C@@H]3OC)c12 | rule met |
| O=C(N[C@@H]1CCN(c2c(C(=O)N3CC4CC(C3)O4)cc(Br)cc2C(F)(F)F)C1)c1cc(=O)[nH]c2c(F)cccc12 | rule met |

====

- TEST DESCRIPTION: in vitro
- EXPERIMENTAL CONTEXT: rat, microsomes, pH 7.4
QUANTITY KIND: log10 of CLint scaled (log10 of the value in mL/min/kg)

| MOLECULE | READOUT VALUE |
| --- | --- |
| O=C(N[C@@H]1CCN(c2c(C(=O)N3CCCCC3)cc(Br)cc2C(F)(F)F)C1)c1cc(=O)[nH]c2c(F)cccc12 [Compound 64] | 3.03 |
| COc1cccc2[nH]c(=O)cc(C(=O)N[C@@H]3CCN(c4c(C(=O)N5CCOCC5)cc(Cl)nc4C4CC4)C3)c12 [Compound 82] | 1.71 |
| COc1cccc2[nH]c(=O)cc(C(=O)N[C@@H]3CCN(c4c(C(=O)N5CCOCC5)cc(F)cc4C4CC4)C3)c12 [Compound 79] | 2.37 |
| O=C(N[C@@H]1CCN(c2c(C(=O)N3CCOCC3)cc(Cl)cc2C(F)(F)F)C1)c1c(F)c(=O)[nH]c2c(F)cccc12 [Compound 55] | 2.50 |
| O=C(N[C@@H]1CCN(c2c(C(=O)N3CCC(F)(F)C3)cc(Br)cc2C(F)(F)F)C1)c1cc(=O)[nH]c2c(F)cccc12 [Compound 69] | 3.02 |
| N#Cc1cc(C(=O)N2CCOCC2)c(N2CC[C@@H](NC(=O)c3cc(=O)[nH]c4c(F)cccc34)C2)c(C2CC2)c1 [Compound 40] | 2.34 |
| O=C(N[C@@H]1CCN(c2c(C(=O)N3CCOCC3)cc(Br)cc2C(F)(F)F)C1)c1cc(=O)[nH]c2c(F)c(F)ccc12 [Compound 51] | 2.65 |

====

- TEST DESCRIPTION: in vitro
- EXPERIMENTAL CONTEXT: PAMPA
Where Papp equals or exceeds 6 ×10⁻⁶ cm/s, the correct label is YES; where it does not, the label is NO.

| MOLECULE | CAT |
| --- | --- |
| N#Cc1cc(C(=O)N2CCOCC2)c(N2CC[C@@H](NC(=O)c3c(F)c(=O)[nH]c4c(F)cccc34)C2)c(C(F)(F)F)c1 [Compound 5] | YES |
| COc1cccc2[nH]c(=O)cc(C(=O)N[C@@H]3CCN(c4c(C(=O)N5CCOCC5)cc(C#N)cc4C(F)(F)F)C3)c12 [Compound 9] | NO |
| O=C(N[C@@H]1CCN(c2c(C(=O)N3CCCC3)cc(Br)cc2C(F)(F)F)C1)c1cc(=O)[nH]c2c(F)cccc12 [Compound 68] | YES |
| N#Cc1cc(C(=O)N2CCOCC2)c(N2CC[C@H](NC(=O)c3cc(=O)[nH]c4c(F)cccc34)C2)c(C(F)(F)F)c1 [Compound 4] | NO |
| O=C(N[C@@H]1CCN(c2c(C(=O)N3CCOCC3)cc(Br)cc2C(F)(F)F)C1)c1c(F)c(=O)[nH]c2ccccc12 [Compound 53] | YES |
| O=C(N[C@@H]1CCN(c2c(C(=O)N3CCOCC3)cc(Br)cc2C(F)(F)F)C1)c1cc(=O)[nH]c2c(F)c(F)ccc12 [Compound 51] | YES |

====

- TARGET OR TEST SYSTEM: MERS Mpro (Middle East respiratory syndrome-related coronavirus (isolate United Kingdom/H123990006/2012) (MERS-CoV) (Betacoronavirus England 1))
- Sequence (K9N7C7 3248-3553 limits assumed): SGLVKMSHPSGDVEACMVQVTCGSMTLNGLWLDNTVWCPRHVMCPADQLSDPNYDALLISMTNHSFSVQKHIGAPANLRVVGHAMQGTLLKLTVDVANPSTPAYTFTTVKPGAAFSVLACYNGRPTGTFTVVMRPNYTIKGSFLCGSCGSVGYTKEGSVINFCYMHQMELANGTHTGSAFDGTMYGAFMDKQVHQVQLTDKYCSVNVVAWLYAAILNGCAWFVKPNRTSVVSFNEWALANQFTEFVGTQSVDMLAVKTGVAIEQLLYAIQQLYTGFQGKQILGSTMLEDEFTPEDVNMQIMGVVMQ
- TEST DESCRIPTION: biochemical
pEC50: −log10 of the molar value.

| MOL | pEC50 |
| --- | --- |
| Cc1[nH]c(=O)cc(C(=O)N[C@@H]2CCN(c3c(C(=O)N4CCOCC4)cc(Br)cc3C(F)(F)F)C2)c1F | 9.00 |
| Cc1[nH]c(=O)c(F)c(C(=O)N[C@@H]2CCN(c3c(C(=O)N4CCOCC4)cc(C#N)cc3C(F)(F)F)C2)c1Cl | 8.79 |
| Cc1cc(C(=O)N2CCOCC2)c(N2CC[C@@H](NC(=O)c3cc(C)[nH]c(=O)c3F)C2)c(C2CC2)c1 | 8.85 |
| O=C(N[C@@H]1CCN(c2c(C(=O)N3CCC(F)(F)C3)cc(Br)cc2C(F)(F)F)C1)c1cc(=O)[nH]c2c(F)cccc12 | 8.75 |
| COCCN(C)C(=O)c1cc(Br)cc(C(F)(F)F)c1N1CC[C@@H](NC(=O)c2cc(=O)[nH]c3c(F)cccc23)C1 | 8.55 |
| O=C(N[C@@H]1CCN(c2c(C(=O)N3CCCC3)cc(Br)cc2C(F)(F)F)C1)c1cc(=O)[nH]c2c(F)cccc12 | 8.74 |
| O=C(N[C@@H]1CCN(c2c(C(=O)N3CCOCC3)cc(Br)cc2C(F)(F)F)C1)c1cc(C(F)F)[nH]c(=O)c1 | 8.49 |

====

Let's go through some recorded EC50 values for 229E Mpro (Human coronavirus 229E (HCoV-229E), UniProt P0C6X1) together.
QUANTITY KIND: EC50 (nM)

| COMPOUND | QUANTITY KIND | UNIT | READOUT VALUE |
| --- | --- | --- | --- |
| O=C(N[C@@H]1CCN(c2c(C(=O)N3CCOCC3)cc(Cl)cc2C(F)(F)F)C1)c1cc(=O)[nH]c2c(F)cccc12 [Compound 36] | EC50 | nM | 2.39 |
| CN1CCN(C(=O)c2cc(Cl)cc(C(F)(F)F)c2N2CC[C@@H](NC(=O)c3cc(=O)[nH]c4c(F)cccc34)C2)CC1 [Compound 37] | EC50 | nM | 2.53 |
| O=C(N[C@@H]1CCN(c2c(OC(F)F)cc(Cl)cc2C(=O)N2CCOCC2)C1)c1cc(=O)[nH]c2c(F)cccc12 [Compound 43] | EC50 | nM | 15 |
| Cc1[nH]c(=O)cc(C(=O)N[C@@H]2CCN(c3c(C(=O)N4CCOCC4)cc(Br)cc3C(F)(F)F)C2)c1F [Compound 59] | EC50 | nM | 20.4 |
| O=C(N[C@@H]1CCN(c2c(C(=O)N3CC4(COC4)C3)cc(Br)cc2C(F)(F)F)C1)c1cc(=O)[nH]c2c(F)cccc12 [Compound 73] | EC50 | nM | 5.79 |
| COc1cccc2[nH]c(=O)cc(C(=O)N[C@H]3CN(c4c(C(=O)N5CCOCC5)cc(C)cc4C4CC4)C[C@@H]3OC)c12 [Compound 84] | EC50 | nM | 2.35 |
| Cc1cc(C(=O)N2CCOCC2)c(N2C[C@H](NC(=O)c3cc(=O)[nH]c4c(F)c(F)ccc34)C[C@H]2C)c(C2CC2)c1 [Compound 83] | EC50 | nM | 1.76 |
| COCCN1CCN(C(=O)c2cc(Br)cc(C(F)(F)F)c2N2CC[C@@H](NC(=O)c3cc(=O)[nH]c4c(F)cccc34)C2)CC1 [Compound 67] | EC50 | nM | 4.22 |
| O=C(N[C@@H]1CCN(c2c(C(=O)N3CC4COCC4C3)cc(Br)cc2C(F)(F)F)C1)c1cc(=O)[nH]c2c(F)cccc12 (stereo partly shown) [Compound 66] | EC50 | nM | 5.78 |
| N#Cc1cc(C(=O)N2CCOCC2)c(N2C[C@H](NC(=O)c3cc(=O)[nH]c4c(F)c(F)ccc34)CC2=O)c(C(F)(F)F)c1 [Compound 34] | EC50 | nM | 41.7 |
| NC(=O)c1cc(C(=O)N2CCOCC2)c(N2CC[C@@H](NC(=O)c3cc(=O)[nH]c4c(F)cccc34)C2)c(C(F)(F)F)c1 [Compound 35] | EC50 | nM | 2.6 |
| Cc1cc(C(=O)N[C@@H]2CCN(c3c(C(=O)NCC(C)C)cc(C#N)cc3C(F)(F)F)C2)cc(=O)[nH]1 [Compound 29] | EC50 | nM | 682 |
| O=C(N[C@@H]1CC(=O)N(c2c(C(=O)N3CCOCC3)cc(Br)cc2C(F)(F)F)C1)c1c(F)c(=O)[nH]c2c(F)c(F)ccc12 [Compound 77] | EC50 | nM | 124 |
